pKi: −log10 of the molar value.
The listing below reports pKi for compounds tested on Carbonic anhydrase 1 (Homo sapiens).
Sequence (P00915 whole entry): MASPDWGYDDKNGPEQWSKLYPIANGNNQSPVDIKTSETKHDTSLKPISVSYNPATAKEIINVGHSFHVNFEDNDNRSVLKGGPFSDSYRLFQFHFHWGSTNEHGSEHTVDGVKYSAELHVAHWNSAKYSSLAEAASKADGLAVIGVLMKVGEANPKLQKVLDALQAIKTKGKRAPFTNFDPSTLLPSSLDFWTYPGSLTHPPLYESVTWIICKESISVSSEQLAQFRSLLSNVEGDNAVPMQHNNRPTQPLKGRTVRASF
EXPERIMENTAL_READOUT: pKi

Reference set (3 entries):
CCCn1c(-c2ccc(S(=O)(=O)c3ccc(Cl)cc3)cc2)n[nH]c1=S 3.26
CCCn1c(-c2ccc(S(=O)(=O)c3ccc(Br)cc3)cc2)n[nH]c1=S 3.29
O=C(Nc1nnc(S)s1)c1c(F)c(F)c(F)c(F)c1F 3.51

I. CC(=O)Nc1nnc(S)s1
II. Cc1cccc(-n2c(-c3ccc(S(=O)(=O)c4ccc(Br)cc4)cc3)n[nH]c2=S)c1
III. CCCCn1c(S)nnc1-c1ccc(S(=O)(=O)c2ccccc2)cc1
IN: Put the items in sequence by pKi, from largest down. Please reply with the labels ordered as requested. Many thanks.
OUT: I, II, III

Data credit: ChEMBL document CHEMBL1141925
